Assay: small-molecule binders of probe aNOTCH2, primary screen, biochemical, small-molecule microarray, 635/667 nm fluorescence (AID 1121);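 note: score merges feature fluorescence read at 667 nm with its signal to noise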
Settings: higher = more signal
Outcome: true (1) for composite z-score of at least 0.04; false (0) for anything lower.

{"smiles.entry": "CC(C)=CCN[C@H](CO)c1ccccc1", "group": "false (0)"}
{"smiles.entry": "CC(C)C(=C=CC[C@@H](O)c1ccc(OCCO)cc1)C[C@@H](O)c1ccccn1", "group": "false (0)"}
{"smiles.entry": "COC(=O)[C@@]1(Cc2ccc(F)cc2)[C@H]2c3cc(C(=O)N(C)C)n(Cc4ccccc4)c3C[C@H]2CN1C(=O)c1ccccc1", "group": "true (1)"}
{"smiles.entry": "O=C1O[C@H](c2ccccc2)[C@H](c2ccccc2)N2[C@H]1[C@@H](C(=O)N1CCCCCCC1)[C@]1(C(=O)Nc3ccc(C#CC4=CCCCC4)cc31)[C@H]2c1ccc(OCCO)cc1", "group": "true (1)"}

Would you kindly look at the next entry?
Enquiry: Given COC(=O)[C@H](Cc1ccccc1)N[C@@H](/C=C/C1CC1)[C@H](O)Cc1ccccc1 , state whether its composite z-score is at least 0.04.
Return: false (0)
